Source listed as patent US11065249B2.

method-notes: Intrinsic clearance in human liver microsomes
Assay type: in vitro ADME
test-context: human, pooled human liver microsomes, pH 7.4, human liver microsome assay, 1 μM test compound; mean +/− STD Dev
Counter-ions that a name gives are not always drawn.
Listed here are molecules together with their documented microsomal CLint at 1 μM.

molecule: CCOc1cccnc1Oc1cncc(-c2ncc(C(=O)N[C@@H]3CNCC(F)(F)C3)cn2)c1 (single isomer, unassigned) [Example 18]
microsomal CLint at 1 μM: 19 µL/min/mg

molecule: CCOc1cccnc1Oc1cncc(-c2ncc(C(=O)N[C@H]3CC[C@H](C(F)(F)F)NC3)cn2)c1 (racemic) [Example 9]
microsomal CLint at 1 μM: > 290 µL/min/mg

molecule: CCOc1cccnc1Oc1cncc(-c2ncc(C(=O)N[C@H]3CNC[C@H](F)C3)cn2)c1 [Example 7, trifluoroacetate salt]
microsomal CLint at 1 μM: < 7 µL/min/mg

molecule: CCOc1cc(F)cnc1Oc1cncc(-c2ncc(C(=O)N[C@@H]3CNC[C@@H](F)C3)cn2)c1 [Example 2]
microsomal CLint at 1 μM: < 7 µL/min/mg

molecule: CCOc1cccnc1Oc1cncc(-c2ncc(C(=O)N[C@@H]3CNC[C@@H](F)C3)cn2)c1 [Example 4]
microsomal CLint at 1 μM: < 7 µL/min/mg

molecule: CCOc1cccnc1Oc1cncc(-c2ncc(C(=O)N[C@@H]3CNCC[C@H]3C)cn2)c1 (racemic) [Example 24, trifluoroacetate salt]
microsomal CLint at 1 μM: < 8 µL/min/mg

molecule: CCOc1cc(F)cnc1Oc1cncc(-c2ncc(C(=O)N[C@@H]3CNCC[C@H]3F)cn2)c1 [Example 6]
microsomal CLint at 1 μM: < 7.8 µL/min/mg
